This collection of values is drawn from ChEMBL document CHEMBL1121363.

Tested on: Calf thymus DNA
Assay: Dimer binding constant for DNA of calf thymus at pH 7.4
Format: nucleic-acid assay
Conditions: Bos taurus
OBSERVATION_TYPE: K app
API note: the answer field is a bare number with no unit suffix.

Query block: Identify measured K app obtained with Calf thymus DNA for COc1ccc2[nH]c3c(C)c4cc[n+](CCN5CCC(C6CCN(CC[n+]7ccc8c(C)c9[nH]c%10ccc(OC)cc%10c9c(C)c8c7)CC6)CC5)cc4c(C)c3c2c1 .
Result block: 1e+06

Query block: Identify measured K app obtained with Calf thymus DNA for COc1ccc2[nH]c3ccc4c[n+](CCN5CCC(C6CCN(CC[n+]7ccc8c(ccc9[nH]c%10ccc(OC)cc%10c98)c7)CC6)CC5)ccc4c3c2c1.[Cl-].[Cl-] .
Result block: 3e+06

Query block: Identify measured K app obtained with Calf thymus DNA for COc1ccc2[nH]c3ccc4cc[n+](CC(O)CN5CCC(C6CCN(CC(O)C[n+]7ccc8ccc9[nH]c%10ccc(OC)cc%10c9c8c7)CC6)CC5)cc4c3c2c1 (stereo unspecified) .
Result block: 2e+07

Query block: Identify measured K app obtained with Calf thymus DNA for COc1ccc2c(c1)c1c3c[n+](CCN4CCC(C5CCN(CC[n+]6ccc7ccc8c(c7c6)c6cc(OC)ccc6n8C)CC5)CC4)ccc3ccc1n2C.[Cl-].[Cl-] .
Result block: 2e+07

Query block: Identify measured K app obtained with Calf thymus DNA for COc1ccc2[nH]c3ccc4cc[n+](CCN5CCC(CCCC6CCN(CC[n+]7ccc8ccc9[nH]c%10ccc(OC)cc%10c9c8c7)CC6)CC5)cc4c3c2c1 .
Result block: 4e+06

Query block: Identify measured K app obtained with Calf thymus DNA for [Cl-].[Cl-].c1ccc2c(c1)[nH]c1ccc3cc[n+](CCN4CCC(C5CCN(CC[n+]6ccc7ccc8[nH]c9ccccc9c8c7c6)CC5)CC4)cc3c12 .
Result block: 5e+06
